Below: a set of entries, each annotated with reported viability at 20 h, 10 µM.
- assay_overview: Cell viability by MTT assay
- Type: cell-based, mouse
- study_conditions: mouse, peritoneal macrophages; 10 µM; MTT; compared to vehicle (DMSO)
Kindly answer with a numeric value in %, unit omitted.

Bench note: what viability at 20 h, 10 µM did O=C(CNc1c(-c2ccccc2)nc2ccccn12)N/N=C/c1ccccc1 [Compound 1f] show?
100

// query viability at 20 h, 10 µM value for entry O=C(CNc1c(-c2ccccc2)nc2ccccn12)N/N=C/c1ccc(OCCN2CCOCC2)c2ccccc12 [Compound 1b]
78.4

What does the data say about its viability at 20 h, 10 µM? Entry: O=C(CNc1c(-c2ccccc2)nc2ccccn12)N/N=C/c1ccc(O)cc1 [Compound 1d]
100

viability at 20 h, 10 µM for O=C(CNc1c(-c2ccccc2)nc2ccccn12)N/N=C/c1ccc(O)c2ccccc12 [Compound 1j] ?
40

Please look up its viability at 20 h, 10 µM: O=C(CNc1c(-c2ccccc2)nc2ccccn12)N/N=C/c1ccc(OCCN2CCOCC2)cc1 [Compound 1c]
100

Next:
Any idea what its viability at 20 h, 10 µM is? The molecule is O=C(CNc1c(-c2ccccc2)nc2ccccn12)N/N=C/c1ccc(Cl)cc1 [Compound 1e]
100

Bench note: what viability at 20 h, 10 µM did CC(C)(C)c1nc2ccccn2c1NCC(=O)N/N=C/c1ccc(OCCN2CCOCC2)c2ccccc12 [Compound 1a] show?
20.1

Field request: viability at 20 h, 10 µM | item: C[S+]([O-])c1ccc(-c2nc(-c3ccncc3)c(-c3ccc(F)cc3)[nH]2)cc1 (centres unmarked) [SB-203580, reference compound]
44.3
